System: U251 CNS
Test: NCI tumour cell line growth inhibition, 48 h
measurement.kind: TGI

Give TGI for Cn1c(=O)ccc2cc(C(=O)c3ccccc3)ccc21 tested on U251 CNS.
> 100 µM

Give TGI for OC1/C(=C/c2ccccc2)CNC/C1=C\c1ccccc1 (stereo not drawn) tested on U251 CNS.
> 100 µM

Give TGI for Cc1cc(NS(=O)(=O)c2ccc(N=Nc3c(Nc4ccccc4)nn(-c4ccc(S(=O)(=O)Nc5ccncn5)cc4)c3C)cc2)no1 tested on U251 CNS.
> 100 µM

###

Test system: SF-539 CNS
Assay: NCI tumour cell line growth inhibition, 48 h; in the data active means GI50 below about 0.43 µM; inactive means the rest
Field 'call' accepts active, inactive

Test call for this compound, please: COc1ccc(S(=O)(=O)Nc2c(/C=C\c3cc(OC)c(OC)c(OC)c3)ccc(OC)c2O)cc1OC
active

Test call for this compound, please: N=C(N)c1ccc(-c2ccc(-c3ccccc3)o2)o1
inactive

Test call for this compound, please: Nc1c2c(c(O)c3c1=C(CO)C=N3)=NCCS2=O (stereo unspecified)
inactive

Test call for this compound, please: O=c1c(-c2nc3ccccc3[nH]2)cc2ccccc2n1Cc1cn(Cc2ccc(F)cc2)nn1
active

Test call for this compound, please: C=C(C=O)[C@@H]1CC=C(C=O)CC1
inactive

Test call for this compound, please: COc1ccc2c(C(=O)NCCCCCC(=O)O)cc3cc4c(cc3c2c1)OCO4
inactive

Test call for this compound, please: O=[N+]([O-])c1ccc(N/N=C\c2ccc(O)cc2O)nc1
inactive

Test call for this compound, please: Nc1c(C(=O)Nc2cccc3ccccc23)sc2nc3c(cc12)CCCCCC3
inactive

Test call for this compound, please: O=c1c(Br)ccc(Br)cc1Br
inactive

Test call for this compound, please: COC(=O)/C=C/c1cc(OC)c2c(c1)[C@@H](C(=O)OC)[C@H](c1ccc(OC)c(OC)c1)O2
inactive

Test call for this compound, please: COc1ccc2c(c1)cn1c3ccc(OC)cc3[nH]c(=O)c21
active

Source of measurements: PubChem BioAssay (NCI)
